Tested on: NrF2 (Nuclear factor (erythroid-derived 2)-like 2)
Experiment: NrF2 activation in a whole cell nuclear translocation assay
Format: cell-based
Measured Quantity: EC50

* COC(=O)/C=C/C(=O)O [monomethylfumarate] | ~127 µM

// data source = patent US10889562B2
